Target: Aryl hydrocarbon receptor (Homo sapiens) (UniProt P35869)
Sequence (P35869 whole entry, looked up): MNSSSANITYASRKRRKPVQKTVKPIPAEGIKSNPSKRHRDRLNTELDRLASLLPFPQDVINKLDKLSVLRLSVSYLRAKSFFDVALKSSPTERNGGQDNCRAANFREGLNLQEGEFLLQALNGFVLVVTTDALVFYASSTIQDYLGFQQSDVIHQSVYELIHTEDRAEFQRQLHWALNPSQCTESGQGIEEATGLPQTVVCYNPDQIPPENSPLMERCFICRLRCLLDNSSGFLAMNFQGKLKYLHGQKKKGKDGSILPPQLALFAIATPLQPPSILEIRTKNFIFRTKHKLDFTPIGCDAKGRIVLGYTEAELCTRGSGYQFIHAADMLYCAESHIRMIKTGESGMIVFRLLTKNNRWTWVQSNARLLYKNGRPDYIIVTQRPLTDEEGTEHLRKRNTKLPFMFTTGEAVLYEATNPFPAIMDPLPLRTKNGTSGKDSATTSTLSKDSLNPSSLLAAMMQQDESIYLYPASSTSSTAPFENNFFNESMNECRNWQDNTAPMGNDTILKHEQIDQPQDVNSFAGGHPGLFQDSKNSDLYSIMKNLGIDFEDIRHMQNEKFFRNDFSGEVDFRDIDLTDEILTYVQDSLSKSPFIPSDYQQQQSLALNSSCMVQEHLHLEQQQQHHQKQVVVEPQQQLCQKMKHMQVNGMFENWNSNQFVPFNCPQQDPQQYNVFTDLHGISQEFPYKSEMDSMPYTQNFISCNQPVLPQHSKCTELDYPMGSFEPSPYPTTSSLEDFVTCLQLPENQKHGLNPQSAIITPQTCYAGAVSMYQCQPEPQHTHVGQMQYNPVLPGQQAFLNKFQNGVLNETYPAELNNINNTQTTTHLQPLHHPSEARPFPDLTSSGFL
Assay: AHR activators, primary screen, cell-based, luminescence, luciferase reporter, human (AID 2796);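 further: 0% = vehicle wells and 100% = reference agonist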
Details: AHR-responsive luciferase reporter cells, at 5 µM, stronger effect = higher value
The whole screen tested about 320,000 compounds, of which about 8,000 (2.5%) were called active. Many of the other results were omitted from the sample, so actives are more common in it than they were.
In this section we review reported activation values for a set of compounds.
# value in %; strip the unit string

Recorded activation, per entry:
>>> measured("CCOC(=O)c1ccc(NC(=O)Cc2cccs2)cc1")
0.34
>>> measured("Cc1nn(-c2ccccc2)c(NC(=O)c2cccs2)c(-c2ccc(Cl)cc2)c1=O")
0.87
>>> measured("COc1nc(NCc2ccc(Cl)cc2)nc(OC)n1")
-1.92
>>> measured("C=CCNc1nc(Nc2ccc(Cl)cc2)nc(OC)n1")
52.8
>>> measured("O=C(Nc1sc2c(c1C(=O)O)CCC2)c1ccccc1F")
13.6
>>> measured("Cc1nn(-c2cc(Cl)ccc2N)c(=O)c2ccccc12")
0.58

Form: compound = CSc1nc2sc3c(c2c(=O)[nH]1)CCc1ccccc1-3 ; activation = 74

====

Biological target: Aryl hydrocarbon receptor (Homo sapiens) (UniProt P35869)
Test: AHR activators, primary screen, cell-based, luminescence, luciferase reporter, human (AID 2796);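 further: 0% = vehicle wells and 100% = reference agonist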
Settings: AHR-responsive luciferase reporter cells, at 5 µM
Out of some 320,000 compounds screened, about 8,000 (2.5%) were called active. Rule as the data show it: active = activation above about 47%; inactive = the rest. The sample as a whole holds a higher share of actives than the screen did.
Returns: one label drawn from 1 = active, -1 = inactive

>>> discrete_label("COCCN(C(=O)c1ccccc1F)c1c(N)n(Cc2ccccc2)c(=O)[nH]c1=O")
-1
>>> discrete_label("O=C(Nc1ccc2sc3ccccc3c(=O)c2c1)c1ccccc1Cl")
1
>>> discrete_label("Cc1cc(Br)ccc1NC(=O)CN(C)C(=O)CN1C(=O)NC2(CCCC2)C1=O")
-1
>>> discrete_label("COc1ccc(NC(=O)CN(C)CC(=O)Nc2cccc(C(F)(F)F)c2)cc1")
-1
>>> discrete_label("CCCCC(=O)Nc1nc(C)c(-c2csc(Nc3ccc(Cl)cc3)n2)s1")
1

How did this test come out for CCOc1cc(/C=N/O)ccc1OCc1ccccc1F ? 1

How did this test come out for Cn1c(=NC(=O)C2CC2)sc2cc(F)cc(F)c21 ? 1

How did this test come out for COc1ccc(-c2csc(NC(=O)COC(=O)Cc3ccc(Cl)cc3Cl)n2)cc1 ? -1

How did this test come out for Cc1nc(NC(=O)c2cccc(Cl)c2)sc1-c1csc(Nc2cccc(Cl)c2)n1 ? 1

How did this test come out for COc1cc(NC(=O)c2cccs2)ccc1NC(=O)c1ccccc1Cl ? -1

How did this test come out for CCCCN(C)CCC(=O)Nc1ccc(Cl)cc1 ? -1

====

Molecular target: Aryl hydrocarbon receptor (Homo sapiens)
Experiment: AHR activators, primary screen, cell-based, luminescence, luciferase reporter, human (AID 2796);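 further: 0% = vehicle wells and 100% = reference agonist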
Conditions: AHR-responsive luciferase reporter cells, at 5 µM, stronger effect = higher value
The whole screen tested about 320,000 compounds, of which about 8,000 (2.5%) were called active. Many of the other results were omitted from the sample, so actives are more common in it than they were.
metric: activation

>>> measured("C=CCNC(=O)CSc1nc2sc(C)c(C)c2c(=O)[nH]1")
"107% (active)"
>>> measured("O=C(CC1Nc2ccccc2NC1=O)Nc1ccccc1NC(=O)CC1Nc2ccccc2NC1=O (centres undefined)")
"47.5% (active)"
>>> measured("COC(=O)C(C)C1Sc2ccccc2NC1=O (centres undefined)")
"-0.86% (inactive)"
>>> measured("O=C(Cc1ccc([N+](=O)[O-])cc1)N/N=C/c1ccco1")
"1.25% (inactive)"
>>> measured("COC(=O)c1ccc(/C=N/N2C(C)CCCC2C)cc1 (centres undefined)")
"-0.9% (inactive)"

Form: molecule = O=C(NCCCNc1ccc([N+](=O)[O-])cc1Cl)c1ccccc1F ; activation = -0.83% (inactive)

Form: molecule = C=CCSc1nnc2c(n1)-c1cccc3cccc-2c13 ; activation = 56.7% (active)

Form: molecule = CC(Sc1nnc(C2CC2)n1C1CC1)C(=O)Nc1ccc(C(N)=O)cc1 (centres undefined) ; activation = -0.58% (inactive)

Form: molecule = Cc1ccc(C(=O)NCC(=O)OCC(=O)NC2CCCCCCC2)cc1 ; activation = 0.7% (inactive)

Form: molecule = CCc1cccc(C)c1NC(=O)COC(=O)CNC(=O)c1cccs1 ; activation = 2.33% (inactive)

Form: molecule = CCSc1nsc(NC(=O)Nc2ccccc2OC)n1 ; activation = -2.87% (inactive)

Form: molecule = Cn1c(N)c(C(=O)COC(=O)c2ccc3ccccc3c2)c(=O)n(C)c1=O ; activation = -1.74% (inactive)

Form: molecule = OCc1n[nH]c(CO)n1 ; activation = -0.81% (inactive)

====

In this section we review reported activation values for a set of compounds.
Biological target: Aryl hydrocarbon receptor (Homo sapiens) (UniProt P35869)
Test: AHR activators, primary screen, cell-based, luminescence, luciferase reporter, human (AID 2796);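 further: 0% = vehicle wells and 100% = reference agonist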
Details: AHR-responsive luciferase reporter cells, at 5 µM, stronger effect = higher value
Hit rate of the full screen: of about 320,000 compounds, about 8,000 (2.5%) were called active. Only a selection was taken, and actives are over-represented in it overall.
# value in %; strip the unit string

Recorded activation, per entry:
>>> measured("COc1cc2[nH]c(=S)n(Cc3ccc(F)cc3)c(=O)c2cc1OC")
0.4
>>> measured("CCOC(=O)Cc1csc(SCc2cc(=O)oc3cc(O)ccc23)n1")
-1.46
>>> measured("Cc1cc(C)n(CC(O)COc2ccc(C(C)(C)C)cc2)n1 (centres undefined)")
1.06
>>> measured("CC12CCC(C(=O)N3CCN(c4ncccn4)CC3)(c3nc4ccccc4nc31)C2(C)C (centres undefined)")
16.9
>>> measured("CC(=O)Nc1nc2ccccc2n1Cc1ccc(C)cc1")
1.47
>>> measured("COc1ccc(CCNC(=O)CCNS(=O)(=O)c2cc(Br)cnc2N)cc1OC")
-0.76
>>> measured("CC(C)CC(=O)c1c[nH]c(C(=O)NCc2ccccc2)c1")
5.43
>>> measured("O=C(Nn1cnc2ccccc2c1=O)c1ccccc1")
4.61

The measured activation that O=C(NC1CCCC1)C1CCN(C(=O)Nc2cccc(Cl)c2)CC1 showed for Aryl hydrocarbon receptor (Homo sapiens) (UniProt P35869) is 0.72

The measured activation that CCn1c2ccccc2c2cc(NC(=O)COC(=O)c3ccccc3Br)ccc21 showed for Aryl hydrocarbon receptor (Homo sapiens) (UniProt P35869) is 62.5

The measured activation that CCn1c(NC(=O)c2nn(C)cc2Br)nc2ccccc21 showed for Aryl hydrocarbon receptor (Homo sapiens) (UniProt P35869) is 122

The measured activation that Cc1cc(=O)oc2cc(NC(=O)C(C)Oc3ccccc3)ccc12 (centres undefined) showed for Aryl hydrocarbon receptor (Homo sapiens) (UniProt P35869) is 2.24

The measured activation that O=S(=O)(NC1CC1)c1ccc2c3c(cccc13)CC2 showed for Aryl hydrocarbon receptor (Homo sapiens) (UniProt P35869) is 1.23

The measured activation that CCn1c2ccccc2c2cc(NC(=O)CNC)ccc21 showed for Aryl hydrocarbon receptor (Homo sapiens) (UniProt P35869) is 44.7

The measured activation that N#CCCCn1c(O)c(N=NC(=O)C(O)c2ccccc2)c2ccccc21 (centres undefined) showed for Aryl hydrocarbon receptor (Homo sapiens) (UniProt P35869) is 6.74

The measured activation that CCn1c2ccccc2c2cc(NC(=S)N3CCOCC3)ccc21 showed for Aryl hydrocarbon receptor (Homo sapiens) (UniProt P35869) is 46

The measured activation that COc1ccccc1NC(=O)c1c(Br)cnn1C showed for Aryl hydrocarbon receptor (Homo sapiens) (UniProt P35869) is 57.9

====

Molecular target: Aryl hydrocarbon receptor (Homo sapiens) (UniProt P35869)
Experiment: AHR activators, primary screen, cell-based, luminescence, luciferase reporter, human (AID 2796);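 further: 0% = vehicle wells and 100% = reference agonist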
Details: AHR-responsive luciferase reporter cells, at 5 µM, stronger effect = higher value
The campaign covered roughly 320,000 compounds. About 8,000 (2.5%) were called active. The sample as a whole holds a higher share of actives than the screen did.
In this section we review reported activation values for a set of molecules.
# value in %; strip the unit string

Recorded activation, per entry:
>>> measured("O=c1[nH]c(-c2cccs2)nc2ccccc12")
71.2
>>> measured("Cc1ccc(-c2nnc(-n3nnc4ccccc43)c3ccccc23)cc1")
1.43
>>> measured("CCOc1ccc(N(CC)S(=O)(=O)c2cccc3nsnc23)cc1")
5.33

Form: molecule = CCOc1ccc(OCC)c(NC(=O)CN(C)S(=O)(=O)c2cccc3nsnc23)c1 ; activation = 53.7

Form: molecule = O=C(/C=C/Sc1ncn[nH]1)c1ccc(Cl)cc1 ; activation = 0.35

Form: molecule = Cc1c(CN2CCC(CO)(CCOc3ccccc3)CC2)[nH]c2ccc(Cl)cc12 ; activation = 6.78

Form: molecule = CCOC(=O)c1cc(NC(=O)c2ccc(Cl)cc2)c(=O)oc1-c1ccccc1 ; activation = -1.16

Form: molecule = O=C(Nc1cccn(Cc2ccccc2Cl)c1=O)NC1CCCCC1 ; activation = -0.61

Form: molecule = CC(=O)Oc1cccc(C(=O)Nc2ccccc2NC(=O)c2cccc(OC(C)=O)c2)c1 ; activation = 2.51

Form: molecule = Nc1ccn(C2CC(O)C(CO)O2)c(=O)n1 (stereo unspecified) ; activation = -4.38

Form: molecule = CC(NS(=O)(=O)c1ccccc1)c1n[nH]c(=S)n1-c1ccccc1 (stereo unspecified) ; activation = 2.32
